Reference source: patent US20240052052A1

Target: T1, human CD24 (human, UniProt P25063 27-59, heavily glycosylated, GPI-anchored (as described in the background))
T1 construct: whole, on cells; Target of all cell-based FACS assays; also called hCD24; Cluster of differentiation 24
T1 chain (looked up): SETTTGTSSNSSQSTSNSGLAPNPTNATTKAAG
Experiment: FACS, MDA-MB-468 cells
Give EC50 for every item shown.
Report the figure in nM without appending any unit label.

query: Need EC50 of 58F10-1F6 (antibody, V domains shown, mouse monoclonal antibody) VH: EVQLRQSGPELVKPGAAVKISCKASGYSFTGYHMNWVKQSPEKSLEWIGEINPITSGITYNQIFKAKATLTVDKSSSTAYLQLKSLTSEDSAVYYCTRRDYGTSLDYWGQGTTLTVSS VL: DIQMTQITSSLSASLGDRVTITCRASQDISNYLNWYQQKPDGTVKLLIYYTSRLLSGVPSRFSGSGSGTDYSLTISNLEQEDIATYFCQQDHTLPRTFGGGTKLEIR , thanks.
result: 38.9

query: Need EC50 of ch100F2E3-hIgG4 (antibody, V domains shown, chimeric) VH: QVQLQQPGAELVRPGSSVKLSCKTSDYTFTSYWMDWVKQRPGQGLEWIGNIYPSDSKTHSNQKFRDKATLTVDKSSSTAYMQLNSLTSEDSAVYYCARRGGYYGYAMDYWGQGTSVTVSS VL: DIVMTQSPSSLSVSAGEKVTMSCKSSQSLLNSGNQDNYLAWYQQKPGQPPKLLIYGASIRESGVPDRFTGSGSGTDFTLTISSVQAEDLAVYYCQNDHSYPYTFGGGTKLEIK , thanks.
result: 7.39

query: Need EC50 of 81A1F8 (antibody, V domains shown, mouse monoclonal antibody) VH: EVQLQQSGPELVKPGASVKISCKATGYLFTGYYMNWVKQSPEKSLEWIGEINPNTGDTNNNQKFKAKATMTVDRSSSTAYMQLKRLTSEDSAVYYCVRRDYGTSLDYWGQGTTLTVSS VL: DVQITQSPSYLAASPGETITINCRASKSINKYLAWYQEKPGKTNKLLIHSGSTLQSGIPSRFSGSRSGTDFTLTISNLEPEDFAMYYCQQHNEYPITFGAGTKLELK , thanks.
result: 5.23

query: Need EC50 of 110D4G4 (antibody, V domains shown, mouse monoclonal antibody; also called mAb-110D4G4) VH: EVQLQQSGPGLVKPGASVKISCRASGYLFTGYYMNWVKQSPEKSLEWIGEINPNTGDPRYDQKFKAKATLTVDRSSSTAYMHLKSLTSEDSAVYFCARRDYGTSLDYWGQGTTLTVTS VL: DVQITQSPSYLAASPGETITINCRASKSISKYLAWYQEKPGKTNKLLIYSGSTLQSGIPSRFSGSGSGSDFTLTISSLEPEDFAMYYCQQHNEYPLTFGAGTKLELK , thanks.
result: 12.2
